# protocol-details: Cmax in BALB/C mouse liver at 2.5 mg/kg, iv by LC-MS/MS analysis
# Format: ADME, organism-based
assay-endpoint: Cmax (nM)
# unit: nM | format: bare number

Annotate the compound `Oc1cccc(-c2nc(N3CCOCC3)c3oc4ncccc4c3n2)c1` with its measured Cmax.
802

---

# protocol-details: Volume of distribution in BALB/C mouse plasma at 2.5 mg/kg, iv by LC-MS/MS analysis
# Assay type: ADME, organism-based
assay-endpoint: Vd (L)
# unit: L | format: bare number

Annotate the molecule Oc1cccc(-c2nc(N3CCOCC3)c3oc4ncccc4c3n2)c1 [PI-103] with its measured Vd.
0.2
